- protocol_details: chemical genetic growth profiling, strain panel (AID 1159580);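 note: tested at 20 µM; growth read once vehicle control cultures reached saturation at 30 °C; 1 = growth at the plate median or of vehicle wells; lower values mean less growth of the strain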
- condition_notes: S. cerevisiae deletion strains, growth OD, locus YBR021W, strain FUR4, active compounds read low
In all, about 5,500 compounds went through this assay and about 2,000 (36%) were called active. Not shown: some 18% with an inconclusive outcome. The list shows a part of the results.
For each record, write down the corresponding normalized growth.
Lab note: record just the number, no unit beside it.

**Query** Which value of normalized growth has been reported for CC(=O)OC1CC[C@@]2(C)C(CCC3C2CC[C@]2(C)C(C4=CC(=O)OC4)C(OC(C)=O)CC32O)C1 (stereo partly drawn) in the records?
**Result** 0.837

**Query** Which value of normalized growth has been reported for `O=C(CCCN1CCC(O)(c2ccc(Cl)cc2)CC1)c1ccc(F)cc1` in the records?
**Result** 0.535

**Query** Which value of normalized growth has been reported for `N#Cc1c(Cl)cccc1Cl` in the records?
**Result** 1.02

**Query** Which value of normalized growth has been reported for C[C@@H]1O[C@@H](O[C@H]2CC[C@]3(C=O)C4CC[C@]5(C)[C@@H](C6=CC(=O)OC6)CC[C@]5(O)C4CC[C@]3(O)C2)[C@H](O)[C@H](O)[C@H]1O (stereo partly drawn) in the records?
**Result** 1.05

**Query** Which value of normalized growth has been reported for C[C@H]1O[C@@H](O[C@H]2[C@@H](O)C[C@H](O[C@H]3[C@@H](O)C[C@H](O[C@H]4CC[C@]5(C)C6CC[C@]7(C)[C@@H](C8=CC(=O)OC8)CC[C@]7(O)C6CC[C@@H]5C4)O[C@@H]3C)O[C@@H]2C)C[C@H](O)[C@@H]1O (stereo partly drawn) in the records?
**Result** 0.968

**Query** Which value of normalized growth has been reported for `CC[C@@]1(O)C(=O)OCc2c1cc1n(c2=O)Cc2cc3cc(O)ccc3nc2-1` in the records?
**Result** 1.01

**Query** Which value of normalized growth has been reported for `CC[C@@]1(O)C(=O)OCc2c1cc1n(c2=O)Cc2cc3ccccc3nc2-1` in the records?
**Result** 0.889

**Query** Which value of normalized growth has been reported for CO[C@H]1[C@H](O)[C@@H](O[C@H]2CC[C@]3(C=O)C4CC[C@]5(C)[C@@H](C6=CC(=O)OC6)CC[C@]5(O)C4CC[C@@H]3C2)O[C@@H](C)[C@@H]1O (stereo partly drawn) in the records?
**Result** 1.01

###

- protocol_details: chemical genetic growth profiling, strain panel (AID 1159580);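 note: tested at 20 µM; growth read once vehicle control cultures reached saturation at 30 °C; 1 = growth at the plate median or of vehicle wells; lower values mean less growth of the strain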
- condition_notes: S. cerevisiae deletion strains, growth OD, locus YDL074C, strain BRE1, active compounds read low
In all, about 5,500 compounds went through this assay and about 2,000 (36%) were called active. Not shown: some 18% with an inconclusive outcome. The list shows a part of the results.
Flag rule - normalized growth less than 1 flags rule met; the remaining entries get rule not met.

**Query** Please state whether normalized growth is below 1 for `NC[C@H]1O[C@H](O[C@H]2[C@H](O)[C@@H](O[C@H]3O[C@H](CO)[C@@H](O)[C@H](N)[C@H]3O)[C@H](N)C[C@@H]2N)[C@H](N)[C@@H](O)[C@@H]1O`
**Result** rule met

**Query** Please state whether normalized growth is below 1 for C[C@H]1[C@H](C)CC[C@]2(C(=O)O)CC[C@]3(C)C(=CCC4[C@@]5(C)C[C@@H](O)[C@H](O)[C@@](C)(CO)C5[C@H](O)C[C@]43C)[C@H]12 (some centres not stated)
**Result** rule met

**Query** Please state whether normalized growth is below 1 for `COc1ccc(-c2cc(=O)c3c(O)cc(O)c(-c4cc(-c5cc(=O)c6c(O)cc(O)cc6o5)ccc4OC)c3o2)cc1`
**Result** rule not met

**Query** Please state whether normalized growth is below 1 for `COc1nc(NC(C)C)nc(NC(C)C)n1`
**Result** rule not met

**Query** Please state whether normalized growth is below 1 for `O=C(O)c1ccccc1O`
**Result** rule not met

**Query** Please state whether normalized growth is below 1 for `COc1ccc(-c2cc(=O)c3c(O)cc(O)cc3o2)cc1O`
**Result** rule met

**Query** Please state whether normalized growth is below 1 for NC[C@@H]1O[C@H](O[C@@H]2[C@@H](CO)OC(O[C@@H]3[C@@H](O)[C@H](N)C[C@H](N)[C@H]3O[C@H]3O[C@H](CO)[C@@H](O)[C@H](O)[C@H]3N)[C@@H]2O)[C@H](N)[C@@H](O)[C@@H]1O (some centres not stated)
**Result** rule met

**Query** Please state whether normalized growth is below 1 for `NC(N)=Nc1ccc(Cl)cc1`
**Result** rule not met
